# testName: Thermostability (Tm, Tonset, Tagg) by Nanotemper DSF
# Format: physicochemical
# Set-up: key: temperatures in °C
# conditionParameters: Replicate 2
experimentalReadout: Tonset
# answer = number (no unit)

Below, 5 molecules whose answers are already recorded.
>>> assayvalue("SDAB22110-4-3-B02: anti-Fel d1 VHH clone, SEQ ID NO: 54 (protein) VHH: QVQLVESGGGLVQPGGSLRLSCVASGFTFSFYTMEWYRQAAGKQRELVAGLTASGTTHYADSAKGRFTISRDNAWNTVFLQMNGLKPEDTAVYYCNAYSGYRDYWGQGTQVTVSL")
33.78
>>> assayvalue("SDAB22110-4-3-E05: anti-Fel d1 VHH clone, SEQ ID NO: 55 (protein) VHH: QVQLVESGGGLVQPGGSLRLSCVGSGFTFSQYAMRWYRQVPGKARELVAAISRSGDFMYYADSVKGRFTISRDNVKSAVILQMNSLKPEDTAVYYCYGQATISDTLWGQGTQVTVSS")
35.73
>>> assayvalue("SDAB22110-3-1-D9-1: anti-Fel d1 VHH clone, SEQ ID NO: 52 (protein) VHH: AVQLVESGGGLVQPGGSLRLSCIISGFTSVSYSIVWFRQAPGKGREGVSCIGSSGGSTDYIDSVKGRFTISRDSAKNTVYLQMDCLKPEDTAVYYCAALRDVYRLCVIDYMNNDYWGQGTQVTVSS")
32.90
>>> assayvalue("DAB22110-1-1-C3 (protein) VHH: QLQLVESGGGLVQPGGSLRLSCEASGFTFKYYTMSWYRQAPGKERELVATITNGDRTNYADSVKGRFTISRDNAKNTLYLQMNSLKPYDTAVYYCNRHLPLLQIWGQGTQVTVSS")
57.94
>>> assayvalue("SDAB22110-4-3-H02: anti-Fel d1 VHH clone, SEQ ID NO: 57 (protein) VHH: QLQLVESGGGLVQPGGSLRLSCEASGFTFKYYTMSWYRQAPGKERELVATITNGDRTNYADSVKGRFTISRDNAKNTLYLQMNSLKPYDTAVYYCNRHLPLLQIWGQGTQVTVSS")
47.76

Let us move to another entry and its Tonset.
Q. Fill in reported Tonset for this entry: SDAB22110-4-3-G08: anti-Fel d1 VHH clone, SEQ ID NO: 56 (protein) VHH: DVQLVESGGGLVQPGGSLRLSCAASGFTFSLYYMSWYRQVPGKERELVATITSGTHATTYADSVKGRFTISRDNAKNTVSLQMNSLKREDTGVYYCKRTNAGQDPWGQGTQVTVSS
A. 27.92
